Experimental Protocol: Pharmacokinetic study in rats: plasma 2C-B after IV/PO 2C-B or PO 2C-B prodrugs
Recorded Conditions: male, Sprague-Dawley, rat, plasma, po, 10 mg/kg, AUC0-last, 2C-B dosed oral 10 mg/kg, male SD rats, analyte 2C-B in plasma, mean
Measurement Type: AUC(0-t) (ng·h/mL)

{"Structure As Smiles": "COc1cc(CCN)c(OC)cc1Br", "Measurement Type": "AUC(0-t)", "Result Number": 43}

---

Experimental Protocol: Pharmacokinetic study in rats: plasma 2C-B after IV/PO 2C-B or PO 2C-B prodrugs
Recorded Conditions: male, Sprague-Dawley, rat, plasma, iv, 1 mg/kg, AUC0-last, 2C-B dosed IV 1 mg/kg, male SD rats, analyte 2C-B in plasma, mean of 3 animals

{"Structure As Smiles": "COc1cc(CCN)c(OC)cc1Br", "AUC(0-t) (ng·h/mL)": 64.5}

These measurements were taken from patent US20250049748A1.
